// provenance: patent US10981900B2

- test_method_notes: Evaluation of compounds' pharmacokinetics in SD rats in vivo (intravenous injection and oral administration)
- Parameters: species or system Sprague Dawley rats
- test_settings: male, Sprague-Dawley, rat, plasma, oral, 2 mg/kg, 2 mpk, single intravenous injection and oral administration, read-out: Bioavailability F
assay_endpoint: bioavailability (%)

> print(dat)
                                   molecule  unit.spec  value.observed
1  CC(C)Oc1ccc(-c2nc(-c3cccc4c3CCC43CC(=O)N(CCO)C3)no2)cc1C(F)F (stereo not shown)          %            89.4

* * *

Known EC50 of a selection of compounds
- assayed_target: S1P1 receptor (Homo sapiens, UniProt P21453)
- Sequence (P21453 whole entry): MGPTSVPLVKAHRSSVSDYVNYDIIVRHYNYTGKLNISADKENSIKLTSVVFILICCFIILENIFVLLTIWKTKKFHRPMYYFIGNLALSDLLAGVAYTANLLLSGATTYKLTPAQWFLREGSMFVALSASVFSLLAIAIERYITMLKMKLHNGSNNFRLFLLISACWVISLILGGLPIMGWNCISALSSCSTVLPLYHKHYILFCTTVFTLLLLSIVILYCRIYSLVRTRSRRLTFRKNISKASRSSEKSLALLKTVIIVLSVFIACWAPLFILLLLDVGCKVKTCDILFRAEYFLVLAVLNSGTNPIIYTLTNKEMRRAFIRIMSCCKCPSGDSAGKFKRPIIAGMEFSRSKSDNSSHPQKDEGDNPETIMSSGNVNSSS
- test_method_notes: S1P1 receptor agonistic activity assay (PathHunter cell strain, chemiluminescent signal detection)
- test_settings: PathHunter cells, agonist mode, 37° C. for 90-180 minutes
assay_endpoint: EC50

> print(dat)
                                    compound  value.observed
 1  CC(C)Nc1ncc(-c2nc(-c3cccc4c3CCC43CC(=O)N(CCO)C3)no2)cc1Br (stereo not shown)    10 to 100 nM
 2  CC(C)Oc1ccc(-c2nc(-c3cccc4c3CCC43CCC(=O)N(CCO)C3)no2)cc1C#N (stereo not shown)         ≤ 10 nM
 3  CC(C)Oc1ccc(-c2nc(-c3cccc4c3CCC43CC(=O)N(CCN(C)C)C3)no2)cc1C#N (stereo not shown)    10 to 100 nM
 4  COc1ccccc1-c1nc(-c2cccc3c2CCC32CC(=O)N(CCO)C2)no1 (stereo not shown)        > 100 nM
 5  CC(C)Oc1ccc(-c2ncc(-c3cccc4c3CCC43CC(=O)N(CCO)C3)o2)cc1C#N (stereo not shown)    10 to 100 nM
 6  CC(C)Oc1ccc(-c2nc(-c3cccc4c3CCC43CC(=O)N(CCO)C3)no2)cc1OC(F)F (stereo not shown)         ≤ 10 nM
 7  CC(C)Oc1ccc(-c2ncc(-c3cccc4c3CCC43CC(=O)N(CCO)C3)s2)cc1C#N (stereo not shown)         ≤ 10 nM
 8  CC(C)Oc1ccc(-c2ncc(-c3cccc4c3CCC43CC(=O)N(CCO)C3)cn2)cc1C#N (stereo not shown)         ≤ 10 nM
 9  CC(C)Oc1ccc(-c2nc(-c3cccc4c3CCC43CC(=O)N(CCO)C3)ns2)cc1C#N (stereo not shown)         ≤ 10 nM
10  COc1ccc(-c2nc(-c3cccc4c3CCC43CC(=O)N(CCO)C3)no2)cc1 (stereo not shown)        > 100 nM
11  O=C1CC2(CCc3c(-c4noc(-c5ccc(OCC6CC6)cc5)n4)cccc32)CN1CCO (stereo not shown)        > 100 nM
12  CC(C)Oc1ccc(-c2nc(-c3cccc4c3CCCC43CC(=O)N(CCO)C3)no2)cc1C#N (stereo not shown)         ≤ 10 nM
13  CC(C)Oc1ccc(-c2nc(-c3cccc4c3CCC43CC(=O)N(CCO)C3)no2)cc1S(C)(=O)=O (stereo not shown)    10 to 100 nM
14  CC(C)Oc1ccc(-c2nc(-c3cccc4c3CCC43CC(=O)N(CC(=O)N(C)C)C3)no2)cc1C#N (stereo not shown)         ≤ 10 nM
15  O=C1CC2(CCc3c(-c4noc(-c5cccc(Cl)c5)n4)cccc32)CN1CCO (stereo not shown)        > 100 nM
16  O=C1CC2(CCc3c(-c4noc(-c5ccc(OC(F)(F)F)cc5)n4)cccc32)CN1CCO (stereo not shown)        > 100 nM
